Tested Target: 5-HT2BR (Homo sapiens)
Construct: expressed in transfected cells; host or cells: Flp-In 293 T-Rex (tetracycline inducible)
Run Description: Calcium flux assay (FLIPR, Fluo-4), 5-HT2BR stable cell line
Type: cell-based
Condition Notes: read-out: 5-HT2BR EC50
Provide the reported EC50 of each item.
Give bare numbers, in nM.

For every item below, please supply its EC50.
1. C[C@H]1C=C(c2c[nH]c3ncccc23)CN(CC2(C)COC2)C1
2. C[C@@H]1C=C(c2c[nH]c3ncccc23)CN(Cc2cnco2)C1
3. C[C@H]1C=C(c2c[nH]c3ncccc23)CNC1
4. C[C@H]1C=C(c2c[nH]c3ncccc23)CN(CC2CC2)C1

Reply:
1: 9230; 2: 940; 3: 1230; 4: 1170

For every item below, please supply its EC50.
1. C[C@@H]1C=C(c2c[nH]c3ncccc23)CN(C)C1
2. CC1C=C(c2cnn(C)c2)CN(CC2(C)COC2)C1 (racemic)
3. c1cnc2[nH]cc(C3CCCNC3)c2c1 (single isomer, unassigned)
4. C[C@H]1C=C(c2c[nH]c3ncccc23)CN(CCCc2cnn(C)c2)C1
5. C[C@@H]1C=C(c2c[nH]c3ncccc23)CN(CCCc2cnn(C)c2)C1

Reply:
[700, 1940, 680, 360, 790]

---

Tested Target: 5-HT2BR (Homo sapiens, UniProt P41595)
Construct: expressed in transfected cells; host or cells: Flp-In 293 T-Rex (tetracycline inducible)
Sequence (P41595 whole entry): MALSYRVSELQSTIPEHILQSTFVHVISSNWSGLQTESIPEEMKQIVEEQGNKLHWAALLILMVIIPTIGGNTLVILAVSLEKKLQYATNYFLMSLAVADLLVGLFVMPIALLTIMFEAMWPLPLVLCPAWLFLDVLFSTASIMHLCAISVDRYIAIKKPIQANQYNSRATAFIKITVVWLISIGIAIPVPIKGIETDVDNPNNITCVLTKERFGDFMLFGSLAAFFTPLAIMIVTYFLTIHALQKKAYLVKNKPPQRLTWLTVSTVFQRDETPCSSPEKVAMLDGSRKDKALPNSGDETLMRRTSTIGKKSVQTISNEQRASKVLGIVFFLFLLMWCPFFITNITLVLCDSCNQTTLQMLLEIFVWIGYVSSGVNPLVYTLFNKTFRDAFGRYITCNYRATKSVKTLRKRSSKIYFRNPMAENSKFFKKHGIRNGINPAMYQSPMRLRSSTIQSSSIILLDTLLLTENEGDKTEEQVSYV
Run Description: 5-HT2BR binding affinity (Ki), Table 8
Condition Notes: bracketed value below Ki; read-out: 5-HT2BR pKi ± S.E.M (converted)
Provide the reported Ki of each item.
Answers are plain numbers, in nM.

Solved entries (count: 5):
| Molecule | Measured Metric | Numeric Value |
| --- | --- | --- |
| CCCN1CC(c2cncc(Cl)c2)=C[C@@H](C)C1 | Ki | 148 |
| C[C@@H]1C=C(c2c[nH]c3ncccc23)CN(CCCc2cnn(C)c2)C1 | Ki | 692 |
| CCCN1CC(c2c[nH]c3ncccc23)=C[C@@H](C)C1 | Ki | 1660 |
| CCCCN1CC(c2c[nH]c3ncccc23)=C[C@@H](C)C1 | Ki | 4570 |
| Cc1ncc(CCN2CC(c3c[nH]c4ncccc34)=C[C@@H](C)C2)cn1 | Ki | 3980 |

For every item below, please supply its Ki.
1. C[C@H]1C=C(c2cncc(Cl)c2)CN(CC2(O)COC2)C1
2. CCCCCN1CC(c2cncc(Cl)c2)=C[C@@H](C)C1
3. C[C@H]1C=C(c2c[nH]c3ncccc23)CN(CC2(C)COC2)C1
4. C[C@H]1C=C(c2cncc(Cl)c2)CN(CCC2CCCC2)C1
5. CCCCN1CC(c2cncc(Cl)c2)=C[C@H](C)C1
6. C[C@@H]1C=C(c2cncc(Cl)c2)CN(C)C1 (stereo in doubt)
7. C[C@H]1C=C(c2c[nH]c3ncccc23)CN(C2COC2)C1

Reply:
[79.4, 550, 5750, 10.7, 7.08, 30.2, 9770]

For every item below, please supply its Ki.
1. C1=C(c2c[nH]c3ncccc23)CNCC1
2. C[C@H]1C=C(c2cncc(Cl)c2)CN(C)C1 (stereo in doubt)
3. CCCN1CC(c2cncc(Cl)c2)=C[C@H](C)C1
4. Cc1cncc(C2=C[C@H](C)CN(CC3(O)COC3)C2)c1 (stereo in doubt)

Reply:
1. 257
2. 138
3. 13.2
4. 245

Task item: Consider the molecule C[C@@H]1C=C(c2c[nH]c3ncccc23)CNC1 and give its measured Ki.
Reply: 295
